Where do the numbers come from? From PubChem BioAssay (NCI).

procedure_text: NCI Yeast Anticancer Drug Screen. Data for the rad50 strain (AID 155);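 further: 0% = growth of vehicle-only cultures of the same strain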
reported_conditions: S. cerevisiae rad50 strain growth inhibition; at 50.0 µM; stronger effect = higher value
This is part of a sample that, as a whole, favours compounds with a hit. Of some 79,000 tested, about 15% had one in any assay.
Parameter: growth inhibition. Scope: all listed entries.
Kindly answer with a numeric value in %, unit omitted.

Would you please look over these solved cases?
C=[CH][Sn]([CH]=C)([c]1ccccc1)[c]1ccccc1    -7.5
COc1cc(C2c3cc4c(cc3OC3(OC)COC(=O)C23)OCO4)cc(OC)c1OC(C)=O (stereo not given)    -8.95
O=C(O)c1c(Cl)n(Cc2cc(Cl)ccc2Cl)c2ccccc12    4.5

# get_value(readout='growth inhibition', item= `Nc1c(Cl)c(Cl)nc(C(=O)O)c1Cl` )
16

# get_value(readout='growth inhibition', item= CCN1CCOC(CC)(c2cc(Cl)cc(Cl)c2Cl)C1 (stereo not given) )
6.35

# get_value(readout='growth inhibition', item= C=CC(Cl)OC(=O)C(C)O (stereo not given) )
16.5

# get_value(readout='growth inhibition', item= `CC(=O)C(I)C(C)=O.[Cr]` )
2.45

# get_value(readout='growth inhibition', item= `O=C(Nc1ccc(Cl)cc1C(=O)c1ccccc1)c1ccc([N+](=O)[O-])cc1` )
-1.4

# get_value(readout='growth inhibition', item= Cc1ccc(C(=O)C(C)N)cc1C (stereo not given) )
-13.6

====

procedure_text: NCI Yeast Anticancer Drug Screen. Data for the rad50 strain (AID 155);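 further: 0% = growth of vehicle-only cultures of the same strain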
reported_conditions: S. cerevisiae rad50 strain growth inhibition; at 50.0 µM; stronger effect = higher value
About 79,000 compounds went through this panel and 15% of them were active in at least one assay; those are over-represented in the sample as a whole.
Returns one of True or False; True when growth inhibition is >= 20%.

NNC(N)=O    False
FC(F)(F)C(OP(OC(C(F)(F)F)C(F)(F)F)OC(C(F)(F)F)C(F)(F)F)C(F)(F)F    True
CC(=O)[C-](Br)C(C)=O.CC(=O)[C-](Br)C(C)=O.CC(=O)[C-](Br)C(C)=O.[Ru+3]    False
COc1ccc([As]=O)cc1N (stereo unspecified)    False
CC12CC/C(=N/NC(=O)Cc3c[nH]c4ccccc34)C=C1CCC1C2CCC2(C)C(OC(=O)c3ccccc3)CCC12 (stereo unspecified)    True

Confirm if growth inhibition reported for the compound `Oc1ccccc1C=NCCN=Cc1ccccc1O.[Cu]` is 20% or above.
False

====

procedure_text: NCI Yeast Anticancer Drug Screen. Data for the sgs1 mgt1 strain (AID 161);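 further: 0% = growth of cultures given vehicle only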
reported_conditions: S. cerevisiae sgs1 mgt1 strain, at 50.0 µM
This is part of a sample that, as a whole, favours compounds with a hit. Of some 79,000 tested, about 15% had one in any assay. Activity calls are given as the source filed them. No stated cut-off is given here; in the data, active means growth inhibition above about 70%; inactive means the rest.
API: response.call in active, inactive

These recorded examples may help you get a feel for the data.
N#CC(C#N)=Cc1ccccc1C(=O)O    inactive
CCC(C#N)N1CC1 (stereo not given)    inactive
CCN(c1ccccc1)P(I)(c1ccccc1)(c1ccccc1)c1ccccc1    active

Could you please tell me the result logged for `OC[C@@H](O)[C@@H](O)CO` in this assay?
inactive

Could you please tell me the result logged for `O=c1[nH]cc(Cn2cccc3c(=O)ncnc2-3)c(=O)[nH]1` in this assay?
inactive

Could you please tell me the result logged for `CC1=CC(=Nc2ccc(N(CCCl)CCCl)cc2)C=CC1=O` in this assay?
inactive

Could you please tell me the result logged for `O=c1[nH]c(=O)c2[nH]c(N=Nc3ccc(N(CCCl)CCCl)cc3)nc2[nH]1` in this assay?
inactive

Could you please tell me the result logged for `O=C(O)C(=O)O.[Co].[NH-]CC[NH-].[NH-]CC[NH-]` in this assay?
inactive

Could you please tell me the result logged for `O=C(c1ccccc1)N1CC1` in this assay?
inactive

Could you please tell me the result logged for `Nc1ccc([N+](=O)[O-])cc1` in this assay?
inactive

Could you please tell me the result logged for `CCN1CCc2cc(OC)c(OC)cc2C1` in this assay?
inactive

Could you please tell me the result logged for O=C(NCC(O)CO)c1c([N+](=O)[O-])ccc(N(CCCl)CCCl)c1[N+](=O)[O-] (stereo not given) in this assay?
inactive

Could you please tell me the result logged for `N#CCCCCN=[N+]=[N-]` in this assay?
inactive

Could you please tell me the result logged for NC(=Nc1ccccc1)Nc1ccccc1 (tested in a mixture with another compound) in this assay?
inactive

Could you please tell me the result logged for `CN1CN(c2ccccc2)C2(CCN(Cc3csc4ccccc34)CC2)C1=O` in this assay?
inactive
